The measurements presented in this section are drawn from patent US8383619B2.

- Tested on: CGL-3
- PROTOCOL DESCRIPTION: Anti-proliferative assay (Oncodesign)
- Type: cell-based
- RECORDED CONDITIONS: CGL-3 (BRAIN); read-out: IC50 (Concentration of test compound)
READOUT NAME: pIC50
To interpret pIC50, take it as minus log10 of a concentration measured in moles per litre.

IN: Identify the reported pIC50 for the following entry. CC(C)c1cc(C(=O)N2Cc3ccc(CN4CCN(C)CC4)cc3C2)c(O)cc1O
OUT: 7.12

###

- Test system: LB831-BLC
- PROTOCOL DESCRIPTION: Anti-proliferative assay (Oncodesign)
- Format: cell-based
- RECORDED CONDITIONS: LB831-BLC (URINARY BLADDER); read-out: IC50 (Concentration of test compound)
READOUT NAME: IC50 (µM)
Give the number; µM is assumed, so skip it.

IN: Identify the reported IC50 for the following entry. CC(C)c1cc(C(=O)N2Cc3ccc(CN4CCN(C)CC4)cc3C2)c(O)cc1O
OUT: 0.149
